# system-under-test: T1, RBM45 RRM3 (Homo sapiens, UniProt Q8IUH3 370-476)
# T1 sequence: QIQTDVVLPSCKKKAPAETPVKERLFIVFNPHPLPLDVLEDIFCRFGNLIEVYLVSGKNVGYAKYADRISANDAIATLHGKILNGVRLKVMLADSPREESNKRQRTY
# assay-overview: fluorescence polarization; FP: 100 nM FAM-RNA/ssDNA, 10 mM Tris-HCl pH 7.5, 200 mM NaCl, 1 mM DTT, 1 mM EDTA, 5% glycerol, 25 °C, 30 min
# test-conditions: protein: recombinant; tags: C-terminal His-tag; label: 5'-FAM
property-measured: Kd (µM)

binder="GGACGG (ssDNA) [GGACGG ssDNA]" property_measured=Kd recorded_result=8.77
binder="GGAAGG (ssRNA)" property_measured=Kd recorded_result=91.6
binder="AGACGG (ssRNA)" property_measured=Kd recorded_result=3.11
binder="GGACGA (ssRNA)" property_measured=Kd recorded_result=1.16
binder="GGACGG (ssRNA, m6A at position 3) [GG(m6A)CGG RNA]" property_measured=Kd recorded_result=4.62
binder="GGAUGG (ssRNA)" property_measured=Kd recorded_result=63.6
binder="GCACGG (ssRNA)" property_measured=Kd recorded_result=8.88
binder="GGACAG (ssRNA)" property_measured=Kd recorded_result=28.1
